# ASSAY SYSTEM: T1, human TGR1 (human, UniProt Q9GZQ4 1-415)
# T1 construct: whole, on cells; Assayed as the membrane fraction of TGR1-expressing CHO cells (1.1 mg/mL protein); also called NMUR2; TGR1 receptor
# T1 sequence (Q9GZQ4 whole entry): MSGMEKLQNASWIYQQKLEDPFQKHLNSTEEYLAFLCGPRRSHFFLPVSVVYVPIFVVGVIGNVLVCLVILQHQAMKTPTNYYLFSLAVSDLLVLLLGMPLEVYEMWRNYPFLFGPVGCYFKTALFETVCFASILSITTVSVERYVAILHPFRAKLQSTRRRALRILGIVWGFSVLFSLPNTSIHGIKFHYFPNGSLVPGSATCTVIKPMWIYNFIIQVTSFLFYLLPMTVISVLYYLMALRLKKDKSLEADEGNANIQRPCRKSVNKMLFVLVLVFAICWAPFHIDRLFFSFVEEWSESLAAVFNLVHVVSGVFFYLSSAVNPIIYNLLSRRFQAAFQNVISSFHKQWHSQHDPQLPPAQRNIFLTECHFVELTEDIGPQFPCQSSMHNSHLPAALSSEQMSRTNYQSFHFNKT
# ASSAY METHOD TEXT: displacement of 125I-NMU8 from human TGR1 CHO membrane fraction; IC50 relative to NMU-8;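 further: competitive binding on TGR1-expressing CHO cell membranes, with compounds tested as DMSO dilution series and incubated for 70 min at 25 °C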
Non-standard residues stand in square brackets, D forms with d. No end group written: not given here. *: point of attachment. Acetyl(2-(piperazin-1-yl)) = O=C(CN1CCNCC1)*; PEG 20 kDa = methoxypolyethylene glycol 20k; PEG 30 kDa = methoxypolyethylene glycol 30k; NMeY = CN[C@@H](Cc1ccc(O)cc1)C(=O)O; NMeR = CN[C@@H](CCCNC(=N)N)C(=O)O; NMeL = CN[C@@H](CC(C)C)C(=O)O; NMeA = CN[C@@H](C)C(=O)O; βAla = NCCC(=O)O
# maps each entry to its IC50 ratio

{mPEG 20 kDa-βAla}-YF[NMeL]FRP[NMeR]N-NH2 [PEG20k-NH-β-Ala0,NMeLeu3,NMeArg7-NMU-8 (Compound O)]: 170 ratio to NMU-8 (=1)

[βAla]YFVFRPRN-NH2 (N-terminus assumed; SMILES CC(C)[C@H](NC(=O)[C@H](Cc1ccccc1)NC(=O)[C@H](Cc1ccc(O)cc1)NC(=O)CCN)C(=O)N[C@@H](Cc1ccccc1)C(=O)N[C@@H](CCCNC(=N)N)C(=O)N1CCC[C@H]1C(=O)N[C@@H](CCCNC(=N)N)C(=O)N[C@@H](CC(N)=O)C(N)=O) [β-Ala0,Val3-NMU-8 (Compound 4)] yielded IC50 ratio of 0.37 ratio to NMU-8 (=1)

{Acetyl(2-(piperazin-1-yl))}-YWLFRARN-NH2 (SMILES CC(C)C[C@H](NC(=O)[C@H](Cc1c[nH]c2ccccc12)NC(=O)[C@H](Cc1ccc(O)cc1)NC(=O)CN1CCNCC1)C(=O)N[C@@H](Cc1ccccc1)C(=O)N[C@@H](CCCNC(=N)N)C(=O)N[C@@H](C)C(=O)N[C@@H](CCCNC(=N)N)C(=O)N[C@@H](CC(N)=O)C(N)=O, also called 2-(piperazin-1-yl)acetyl-[Trp2,Ala6]-NMU8) [NpipAc0,Trp2,Ala6-NMU-8 (Compound 20)] yielded IC50 ratio of 1.9 ratio to NMU-8 (=1)

{PEG 30 kDa-βAla}-RFLFRPRN-NH2 (also called PEG-NH-β-Ala0,Arg1-NMU-8) [PEG30k-NH-β-Ala0,Arg1-NMU-8 (Compound G)] yielded IC50 ratio of 8.5 ratio to NMU-8 (=1)

{PEG 30 kDa-βAla}-YFLFRPRD-NH2 [PEG30k-NH-β-Ala0,Asp8-NMU-8 (Compound L)] yielded IC50 ratio of 34 ratio to NMU-8 (=1)

{PEG 20 kDa-Acetyl(2-(piperazin-1-yl))}-YELFR[NMeA]RN-NH2 (also called PEG20k-NpipAc-Glu2,NMeAla6-NMU8) [PEG20k-NpipAc0,Glu2,NMeAla6-NMU-8 (Compound U)] yielded IC50 ratio of 360 ratio to NMU-8 (=1)

{PEG 20 kDa-βAla}-YELFR[NMeA]RN-NH2 [PEG20k-NH-β-Ala0,Glu2,NMeAla6-NMU-8 (Compound R)] yielded IC50 ratio of 540 ratio to NMU-8 (=1)

{mPEG 20 kDa-βAla}-[NMeY]F[NMeL]F[NMeR]PRN-NH2 [PEG20k-NH-β-Ala0,NMeTyr1,NMeLeu3,NMeArg5-NMU-8 (Compound P)] yielded IC50 ratio of 240 ratio to NMU-8 (=1)

{PEG 30 kDa-βAla}-YFVFRPRN-NH2 (also called PEG-NH-β-Ala0,Val3-NMU-8) [PEG30k-NH-β-Ala0,Val3-NMU-8 (Compound D)] yielded IC50 ratio of 2.2 ratio to NMU-8 (=1)
